Target: GPR139 (Homo sapiens, UniProt Q6DWJ6)
Sequence (Q6DWJ6 1-353): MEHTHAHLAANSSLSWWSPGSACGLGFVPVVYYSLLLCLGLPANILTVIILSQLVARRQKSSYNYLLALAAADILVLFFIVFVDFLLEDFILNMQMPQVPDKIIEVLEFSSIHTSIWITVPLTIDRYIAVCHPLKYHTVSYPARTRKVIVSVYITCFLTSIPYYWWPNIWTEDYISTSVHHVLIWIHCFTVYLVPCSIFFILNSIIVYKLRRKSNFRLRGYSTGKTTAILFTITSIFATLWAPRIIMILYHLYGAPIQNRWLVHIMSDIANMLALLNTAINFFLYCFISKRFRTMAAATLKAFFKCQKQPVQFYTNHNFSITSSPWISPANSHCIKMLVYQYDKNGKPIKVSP
Experiment: GPR139 Agonist titration / agonist counterscreen assay (calcium detection, HEK-GPR139 cells)
Type: cell-based
Set-up: expressed in transfected cells; host or cells: HEK Aequorin cells, Maxcyte transient transfection
Conditions: GPR139 Agonist Activity; activity relative to known control
Below: a set of entries, each annotated with reported Averaged Max % Response (±St. Dev.).
Only the number, expressed in %, is required.

GET /value?item= COc1cc(C(=O)NNC(=O)C(C)Oc2ccc(Cl)cc2Cl)cc(OC)c1OC (stereo not drawn) &field=Averaged Max % Response (±St. Dev.) returns 113.87

Recorded result, O=C(CCc1nc2cccnc2n1Cc1cccs1)NCCc1cccs1 , Averaged Max % Response (±St. Dev.): 105.59

The recorded Averaged Max % Response (±St. Dev.) for entry CCOc1ccc(C(=O)NCCn2ccc3ccccc32)cc1OCC equals 110.51

The compound listed as O=C(CSCc1cccc2ccccc12)Nc1c[nH]c(=O)[nH]c1=O shows Averaged Max % Response (±St. Dev.) equal to 96.78

For this compound ( Cc1cccc(COc2coc(COc3nccn3C)cc2=O)c1 ), measured Averaged Max % Response (±St. Dev.) is 104.22

The compound listed as O=C(Cn1ccc2ccccc21)NC1CCN(Cc2ccccc2)CC1 has a reported Averaged Max % Response (±St. Dev.) of 83.76

Data provenance is patent US20250099420A1.
